Test system: OVCAR-3
Test: NCI tumour cell line growth inhibition, 48 h
The source made the active and inactive calls. No stated cut-off is given here; in the data, active = GI50 up to about 1.1 µM and inactive = higher.
Hello, when you answer, please use one of the following outcomes: YES = active, NO = inactive

Given CC(=O)OCC1OC(Nc2nc(O)n(C)c(=O)c2-c2csc(N)n2)C(OC(C)=O)C(OC(C)=O)C1OC(C)=O (configuration not stated) , state the outcome it received in this test.
NO

* * *

System: LOX IMVI
Test: NCI tumour cell line growth inhibition, 48 h
Active and inactive are the calls of the source. Rule as the data show it: active = GI50 up to about 1.1 µM and inactive = higher.
Hello, when you answer, please use one of the following outcomes: active, inactive

Below, 2 compounds whose answers are already recorded.
# compound, class-assignment
data = [
    ("c1ccc2c3ccn4ccc5c6ccccc6[nH]c5c4c-3nc2c1", "active"),
    ("O=c1[nH]c(=O)n(C2OC(CO)C(O)C2O)cc1/N=N/NCc1ccccc1 (stereo unspecified)", "inactive"),
]

Given CC1=C2C(O)C(C(C)CO)C(O)CC2(C)C(O)CC1 (stereo unspecified) , state the outcome it received in this test.
inactive

What about O=C1/C(=N/CCc2cc(Br)c(O)c(Br)c2)C=C(O)c2cccnc21 ?
active

What about CCc1cc(C)cc2[n+]1CC=C2C.[O-][Cl+3]([O-])([O-])[O-] ?
inactive
